assay: Cytotoxicity against human A253 cells after 96 hrs by SRB assay; assay type: functional, cell-based; details: a253
# Lookup of reported IC50 keyed by entry
Reported property: IC50 (µM)

1. COC(=O)[C@@]1(C)CC[C@]2(C)CC[C@]3(C)C(=CC(=O)[C@@H]4[C@@]5(C)CC[C@H](OC(=O)CCN)C(C)(C)[C@@H]5CC[C@]43C)[C@@H]2C1 | 2.51
2. COC(=O)[C@@]1(C)CC[C@]2(C)CC[C@]3(C)C(=CC(=O)[C@@H]4[C@@]5(C)CC[C@H](OC(=O)CN)C(C)(C)[C@@H]5CC[C@]43C)[C@@H]2C1 | 5.5
3. COC(=O)[C@@]1(C)CC[C@]2(C)CC[C@]3(C)C(=CC(=O)[C@@H]4[C@@]5(C)CC[C@H](OC(=O)[C@H](C)N)C(C)(C)[C@@H]5CC[C@]43C)[C@@H]2C1 | 3.5

###

experiment: Cytotoxicity against mouse NIH/3T3 cells after 96 hrs by SRB assay; type: cell-based; conditions: NIH3T3, 96 h
The label TRUE is reserved for IC50 strictly under 20 µM; FALSE covers values equal to or above it.

1. COC(=O)[C@@]1(C)CC[C@]2(C)CC[C@]3(C)C(=CC(=O)[C@@H]4[C@@]5(C)CC[C@H](O)C(C)(C)[C@@H]5CC[C@]43C)[C@@H]2C1 | FALSE
2. CC1(C)[C@@H](O)CC[C@]2(C)[C@H]3C(=O)C=C4[C@@H]5C[C@@](C)(C(=O)OCc6ccccc6)CC[C@]5(C)CC[C@@]4(C)[C@]3(C)CC[C@@H]12 | FALSE
3. CC1(C)[C@@H](O)CC[C@]2(C)[C@H]3C(=O)C=C4[C@@H]5C[C@@](C)(C(=O)O)CC[C@]5(C)CC[C@@]4(C)[C@]3(C)CC[C@@H]12 [ENOXOLONE] | TRUE
4. CC(C)OC(=O)[C@@]1(C)CC[C@]2(C)CC[C@]3(C)C(=CC(=O)[C@@H]4[C@@]5(C)CC[C@H](O)C(C)(C)[C@@H]5CC[C@]43C)[C@@H]2C1 | FALSE
5. CCOC(=O)[C@@]1(C)CC[C@]2(C)CC[C@]3(C)C(=CC(=O)[C@@H]4[C@@]5(C)CC[C@H](O)C(C)(C)[C@@H]5CC[C@]43C)[C@@H]2C1 | FALSE

###

experiment: Cytotoxicity against human A253 cells after 96 hrs by SRB assay; assay type: functional, cell-based; settings: Homo sapiens, A253, 96 h
Reported property: IC50 (µM)

1) CCOC(=O)[C@@]1(C)CC[C@]2(C)CC[C@]3(C)C(=CC(=O)[C@@H]4[C@@]5(C)CC[C@H](OC(=O)CCN)C(C)(C)[C@@H]5CC[C@]43C)[C@@H]2C1 | 2.23
2) CCOC(=O)[C@@]1(C)CC[C@]2(C)CC[C@]3(C)C(=CC(=O)[C@@H]4[C@@]5(C)CC[C@H](O)C(C)(C)[C@@H]5CC[C@]43C)[C@@H]2C1 | 25
3) CC1(C)[C@@H](O)CC[C@]2(C)[C@H]3C(=O)C=C4[C@@H]5C[C@@](C)(C(=O)O)CC[C@]5(C)CC[C@@]4(C)[C@]3(C)CC[C@@H]12 | 80.8

###

tested on: DLD-1; assay: Cytotoxicity against human DLD1 cells after 96 hrs by SRB assay; assay type: functional, cell-based; settings: Homo sapiens, DLD-1, 96 h
pIC50: −log10 of the molar value.
Reported property: pIC50

1. CCOC(=O)[C@@]1(C)CC[C@]2(C)CC[C@]3(C)C(=CC(=O)[C@@H]4[C@@]5(C)CC[C@H](OC(=O)[C@H](C)N)C(C)(C)[C@@H]5CC[C@]43C)[C@@H]2C1 | 5.43
2. CCOC(=O)[C@@]1(C)CC[C@]2(C)CC[C@]3(C)C(=CC(=O)[C@@H]4[C@@]5(C)CC[C@H](OC(=O)[C@@H](C)N)C(C)(C)[C@@H]5CC[C@]43C)[C@@H]2C1 | 5.35
3. CC(C)OC(=O)[C@@]1(C)CC[C@]2(C)CC[C@]3(C)C(=CC(=O)[C@@H]4[C@@]5(C)CC[C@H](OC(=O)[C@@H](C)N)C(C)(C)[C@@H]5CC[C@]43C)[C@@H]2C1 | 5.25
4. CC(C)OC(=O)[C@@]1(C)CC[C@]2(C)CC[C@]3(C)C(=CC(=O)[C@@H]4[C@@]5(C)CC[C@H](OC(=O)CN)C(C)(C)[C@@H]5CC[C@]43C)[C@@H]2C1 | 5.60
